molecular target: proton pump (H+/K+-ATPase) (Sus scrofa); construct: Gastric vesicles were prepared from hog stomach via centrifugal separation; test: Measurement of inhibitory effects on proton pump (H+/K+-ATPase) activities; settings: hog gastric vesicles, K+-specific H+/K+-ATPase activity, Tris-HCl buffer pH 7.4, 37° C. for 40 minutes, malachite green Pi readout
Sequence (P19156 whole entry): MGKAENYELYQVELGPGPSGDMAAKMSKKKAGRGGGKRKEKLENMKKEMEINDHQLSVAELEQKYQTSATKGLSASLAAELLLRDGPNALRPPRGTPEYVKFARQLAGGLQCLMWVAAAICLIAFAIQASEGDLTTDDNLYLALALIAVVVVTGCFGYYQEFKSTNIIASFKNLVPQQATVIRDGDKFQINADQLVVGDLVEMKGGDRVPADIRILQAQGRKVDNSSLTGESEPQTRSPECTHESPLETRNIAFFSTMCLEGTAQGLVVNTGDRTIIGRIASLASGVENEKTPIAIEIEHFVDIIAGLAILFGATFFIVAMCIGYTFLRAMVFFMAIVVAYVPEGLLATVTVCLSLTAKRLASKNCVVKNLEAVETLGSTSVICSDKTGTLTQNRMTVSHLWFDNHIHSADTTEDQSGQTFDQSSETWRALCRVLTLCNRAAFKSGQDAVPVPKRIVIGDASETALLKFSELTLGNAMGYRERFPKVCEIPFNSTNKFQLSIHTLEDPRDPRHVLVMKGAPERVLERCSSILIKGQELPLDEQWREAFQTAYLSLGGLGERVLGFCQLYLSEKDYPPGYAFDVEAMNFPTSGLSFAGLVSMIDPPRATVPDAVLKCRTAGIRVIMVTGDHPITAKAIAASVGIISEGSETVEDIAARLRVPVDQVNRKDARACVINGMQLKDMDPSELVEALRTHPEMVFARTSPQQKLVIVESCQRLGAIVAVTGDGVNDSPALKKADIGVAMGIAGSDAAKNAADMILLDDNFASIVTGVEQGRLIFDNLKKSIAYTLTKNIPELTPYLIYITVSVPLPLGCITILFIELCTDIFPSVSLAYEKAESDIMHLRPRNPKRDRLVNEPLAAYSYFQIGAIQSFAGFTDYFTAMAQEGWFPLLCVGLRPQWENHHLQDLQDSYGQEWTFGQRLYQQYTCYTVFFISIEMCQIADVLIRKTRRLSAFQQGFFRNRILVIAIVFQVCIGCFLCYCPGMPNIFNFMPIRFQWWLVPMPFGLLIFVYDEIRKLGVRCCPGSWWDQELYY
Sequence (P18434 whole entry partner): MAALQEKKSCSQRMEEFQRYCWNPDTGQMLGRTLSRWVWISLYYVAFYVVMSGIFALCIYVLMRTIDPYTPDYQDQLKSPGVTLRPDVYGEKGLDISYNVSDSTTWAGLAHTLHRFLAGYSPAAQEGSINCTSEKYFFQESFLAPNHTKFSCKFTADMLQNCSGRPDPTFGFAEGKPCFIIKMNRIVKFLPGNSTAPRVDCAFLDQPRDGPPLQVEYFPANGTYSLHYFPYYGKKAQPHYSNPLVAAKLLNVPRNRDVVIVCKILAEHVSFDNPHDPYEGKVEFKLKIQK
pIC50: −log10 of the molar value. Where a name gives a salt, the structure may show the parent alone.
Parameter pIC50: see the listing below.

>  <COMPOUND>
CNCc1cn(S(=O)(=O)c2cccnc2)c2cc(Nc3ccc(Cl)nc3Cl)ccc12 [Example 119, hydrochloride]

>  <pIC50>
6.32

$$$$
>  <COMPOUND>
CNCc1cn(S(=O)(=O)c2ccc(Cl)c(Cl)c2)c2cc(Nc3ccc(C)cc3F)ccc12 [Example 238, hydrochloride]

>  <pIC50>
5.59

$$$$
>  <COMPOUND>
CNCc1cn(S(=O)(=O)c2cc(C)cc(C)c2)c2cc(Nc3ccc(C)cc3F)ccc12 [Example 239, hydrochloride]

>  <pIC50>
5.76

$$$$
>  <COMPOUND>
CNCc1cn(S(=O)(=O)c2cccnc2)c2cc(Nc3ccc(OC)cc3C(F)(F)F)ccc12 [Example 51, hydrochloride]

>  <pIC50>
5.92

$$$$
>  <COMPOUND>
CNCc1cn(S(=O)(=O)c2cccc(F)c2)c2cc(Nc3ccc(C(F)(F)F)nc3Cl)ccc12 [Example 145, hydrochloride]

>  <pIC50>
6.77

$$$$
>  <COMPOUND>
CNCc1cn(S(=O)(=O)c2cccnc2)c2cc(Nc3cccnc3F)ccc12 [Example 106, hydrochloride]

>  <pIC50>
5.47

$$$$
>  <COMPOUND>
CNCc1cn(S(=O)(=O)c2cccnc2)c2cc(Nc3ccc(C)c(F)c3F)ccc12 [Example 65, hydrochloride]

>  <pIC50>
6.51

$$$$
